B1: scFv; the commonest letter at each place (parent)
chain 1: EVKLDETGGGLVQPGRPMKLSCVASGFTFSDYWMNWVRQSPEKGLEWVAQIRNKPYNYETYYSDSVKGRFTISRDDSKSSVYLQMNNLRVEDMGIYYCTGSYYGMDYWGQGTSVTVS
chain 2: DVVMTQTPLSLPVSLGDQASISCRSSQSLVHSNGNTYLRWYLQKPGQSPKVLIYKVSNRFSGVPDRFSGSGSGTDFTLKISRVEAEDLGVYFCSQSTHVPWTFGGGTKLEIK

- Variants of: B1
- experimentalDetails: yeast surface expression (ratio to wild type); higher = more expressed
- conditionContext: format: scFv 4-4-20, heavy + light
Classify by measured yeast surface expression: label 1 if it is equal to or exceeds 0.4, label 0 if it is smaller.

Input line: yeast surface expression >= 0.4 for chain 1 N35K V37K ?
Output line: label 0

Continuing:
Input line: yeast surface expression >= 0.4 for chain 1 W36D ?
Output line: label 1

Input line: yeast surface expression >= 0.4 for chain 1 F29Q Y32V ?
Output line: label 1

Input line: yeast surface expression >= 0.4 for chain 1 D31C W33K ?
Output line: label 1

Input line: yeast surface expression >= 0.4 for chain 1 Y102V Y107D ?
Output line: label 1

Input line: yeast surface expression >= 0.4 for chain 1 Y32E M34I ?
Output line: label 1

Input line: yeast surface expression >= 0.4 for chain 1 G100Q D106I ?
Output line: label 0
